# target_of_assay: Alpha-1,4-glucan:maltose-1-phosphate maltosyltransferase (Mycobacterium tuberculosis (strain ATCC 25618 / H37Rv))
# Sequence (P9WQ17 whole entry): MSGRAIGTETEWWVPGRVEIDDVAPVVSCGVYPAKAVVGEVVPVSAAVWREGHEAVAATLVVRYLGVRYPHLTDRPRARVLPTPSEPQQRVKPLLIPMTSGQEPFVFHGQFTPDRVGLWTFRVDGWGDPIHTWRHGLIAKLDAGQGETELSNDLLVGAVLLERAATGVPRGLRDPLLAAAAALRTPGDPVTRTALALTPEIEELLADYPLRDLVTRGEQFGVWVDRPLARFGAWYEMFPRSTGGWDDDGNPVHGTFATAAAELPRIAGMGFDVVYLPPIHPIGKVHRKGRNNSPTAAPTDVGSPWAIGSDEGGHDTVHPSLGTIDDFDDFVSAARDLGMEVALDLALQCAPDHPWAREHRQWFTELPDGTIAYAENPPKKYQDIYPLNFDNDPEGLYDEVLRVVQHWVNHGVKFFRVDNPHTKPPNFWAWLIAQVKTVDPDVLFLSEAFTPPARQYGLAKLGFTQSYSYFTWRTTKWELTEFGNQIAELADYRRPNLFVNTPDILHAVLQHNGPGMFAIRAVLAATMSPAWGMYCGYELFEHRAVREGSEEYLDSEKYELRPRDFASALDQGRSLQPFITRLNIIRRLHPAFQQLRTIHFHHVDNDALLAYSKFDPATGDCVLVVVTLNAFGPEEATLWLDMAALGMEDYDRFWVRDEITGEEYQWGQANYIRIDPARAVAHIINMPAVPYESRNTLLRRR
# method_summary: Inhibition of recombinant Mycobacterium tuberculosis H37Rv GlgE expressed in Escherichia coli BL21 (DE3) rosetta cells using maltose-1-phosphate as substrate measured every 5 secs for 30 mins by purine nucleoside phosphorylase-coupled assay
readout_name: IC50 (µM)
A number alone suffices; assume µM.

I would be grateful if you could share the reported IC50 for O=P(O)(O)C[C@H]1O[C@H](CO)[C@@H](O[C@H]2O[C@H](CO)[C@@H](O)[C@H](O)[C@H]2O)[C@H](O)[C@H]1O .
230
